Molecular target: von Willebrand factor (VWF) (Homo sapiens, UniProt P04275 P04275:764-2813)
Test: filter; binding decreased
Conditions: tags: Haematologic Technologies Inc. (factor VIII free); label: 5'-32P; ssRNA; 2'-F pyrimidines
Listed here: items and their measured binding signal.
# number only, unit % Bmax dropped from output

Some solved cases for reference:
INSERT INTO results (record_sequence, observable, u, measured) VALUES
  ('GGGAGGACGAUGCGGUGGACGAACUGCCCUCAGCUACUUUCAUGUUGCUGACGCACAGACAGC', 'binding signal', '% Bmax', 36),
  ('GGGAGGACGAUGCGGUGGACGAACUGCCCUCAGCUACUUUCAUGUUGCUGACGCACAGACGACUCGCUG', 'binding signal', '% Bmax', 50),
  ('GGGAGGACGAUGCGGUGGACGAACUGCCCUCAGCUACUUUCAUGUUGCUGACGCACAGACGACUCGCUGAGG', 'binding signal', '% Bmax', 50),
  ('GGGAGGACGAUGCGGUGGACGAACUGCCCUCAGCUACUUUCAUGUUGCUGACGCACAGACGACUCG', 'binding signal', '% Bmax', 28),
  ('GGGAGGAACUGCCCUCAGCUACUUUCAUGUUGCUGACGCACAGACGACUCGCUG', 'binding signal', '% Bmax', 45);

Exam item: Specify binding signal for GGGAGGACGAACUGCCCUCAGCUACUUUCAUGUUGCUGACGCACAGACGACUCGCUG and stop.
Marked response: 58
